tested on: OVCAR-3 ovarian; assay: NCI tumour cell line growth inhibition, 48 h
Field: TGI. Provide a value for each of the compounds that follow.
Give the value, in units of µM, as a plain number.

Query string: For OVCAR-3 ovarian, provide TGI of COc1ccc2c(c1)C(C)Cc1c(Cl)ncnc1N2C (configuration not stated) please.
Result string: 0.75

Query string: How about CS(=O)(=O)Nc1ccc(N2Cc3cnc4ccc5[nH]ccc2c5c34)cc1 ?
Result string: 32.2

Query string: How about Cc1ccc(C(SCC(N)C(=O)O)(c2ccccc2)c2ccc(C)cc2)cc1 (configuration not stated) ?
Result string: 2.64

Query string: How about Cc1ccc(Cl)cc1Nc1nc(C(F)(F)F)ccc1C(=O)N1CCN(c2ccc(F)cc2)CC1 ?
Result string: 24

Query string: How about COc1ccc(/C=C(/C(=O)c2ccc(Cl)cc2)N2C=CC=CC2=C(C#N)C#N)cc1OC ?
Result string: 15.2

Query string: How about NC(=NCCCOc1ccc(Cl)cc1)Nc1ccc(C(F)(F)F)cc1 ?
Result string: 6.14

Query string: How about Nc1nc(Cl)c(N)c(NC23CC4CC(CC(C4)C2)C3)n1 ?
Result string: 3.62

Query string: How about C=C(C)[C@@]12OC3(/C=C/C=C/CCCCC)O[C@@H]1[C@@H]1[C@@H]4O[C@]4(CO)[C@@H](O)[C@]4(O)C(=O)C(C)=C[C@H]4[C@@]1(O3)[C@H](C)[C@H]2OC(=O)c1ccccc1 ?
Result string: 3.08

Query string: How about O=[N+]([O-])c1cc2oc(COc3ccccc3)nc2cc1Cl ?
Result string: 48.2

###

system: KM12 colon; experiment: NCI tumour cell line growth inhibition, 48 h; in the data active = GI50 below about 0.43 µM; inactive = the rest
Pick one: yes = active, no = inactive

Query string: Could you check what this test reported for CNCCCn1cc(C2=C(c3cn(C)c4ccccc34)C(=O)NC2=O)c2ccccc21 ?
Result string: no

Query string: How about COc1ccc(N2C(=O)C(c3ccccc3)(c3ccccc3)C23C(=O)N(C)c2ccccc23)cc1 (stereo not drawn) ?
Result string: no

Query string: How about COc1ccc(C(=O)c2cc(OC)c(C)c(OC)c2)cc1OC(=O)CCl ?
Result string: yes

###

Field: TGI. Provide a value for each of the compounds that follow.
test system: RXF 393 renal; experiment: NCI tumour cell line growth inhibition, 48 h

Query string: Form field: reported TGI of O=C(OC(=O)n1ccc2ccccc21)n1ccc2ccccc21
Result string: > 100 µM

Query string: How about O/N=C1/COC(C(F)(F)F)(C(F)(F)F)C1 ?
Result string: > 100 µM

Query string: How about CSc1nc2c(nc(C)c(=O)n2C2OCC(OC(C)=O)C(OC(C)=O)C2OC(C)=O)c(=O)[nH]1 (stereo not drawn) ?
Result string: > 100 µM

###

system: K-562 leukemia; experiment: NCI tumour cell line growth inhibition, 48 h
metric-name: TGI (µM)
Give the value, in units of µM, as a plain number.

Query string: Form field: reported TGI of CC(C)(C)[SiH]12(OC(C(F)(F)F)(C(F)(F)F)c3ccccc31)OC(C(F)(F)F)(C(F)(F)F)c1ccccc12
Result string: 18.2

Query string: How about COc1ccc(CC2c3cc(Oc4cc(CC5c6cc(OC)c(OC)cc6CCN5C)ccc4O)c(OC)cc3CCN2C)cc1 (stereo not drawn) ?
Result string: 5.28

###

tested on: OVCAR-8 ovarian; experiment: NCI tumour cell line growth inhibition, 48 h
Field: GI50. Provide a value for each of the compounds that follow.

Query string: Form field: reported GI50 of O=C(Nc1ccc(OS(=O)(=O)c2ccccc2)cc1)C12CC3CC(CC(C3)C1)C2
Result string: > 100 µM

Query string: How about COc1ccc(N2C(=O)C(c3ccccc3)(c3ccccc3)C23C(=O)N(C)c2ccccc23)cc1 (stereo not given) ?
Result string: > 100 µM

Query string: How about C/C(=C\CCc1ccoc1)CC/C=C(\C)CCCC1=CC(=O)OC1 ?
Result string: 5.11 µM

Query string: How about CC(SC(C)C(=O)N/N=C/c1cccc(Cl)c1)C(=O)N/N=C\c1cccc(Cl)c1 (stereo not given) ?
Result string: 4.78 µM

Query string: How about Cc1c2cccnc2c(C)c2c1c1cc(CO)ccc1n2C ?
Result string: 1.55 µM

###

tested on: NCI-H522 lung; experiment: NCI tumour cell line growth inhibition, 48 h
Field: TGI. Provide a value for each of the compounds that follow.

Query string: Form field: reported TGI of CNn1c(-c2ccccc2)n[nH]c1=O
Result string: > 100 µM

Query string: How about O=C(O)c1nc(-c2ccccc2)ncc1-c1nnnn1-c1ccccc1 ?
Result string: > 100 µM

Query string: How about O/N=C1/COC(C(F)(F)F)(C(F)(F)F)C1 ?
Result string: > 100 µM

Query string: How about O=C(O)/C=N\Nc1nc2ccccc2[nH]1 ?
Result string: > 100 µM

Query string: How about O=[N+]([O-])c1ccc(Cl)c(C=NC23CC4CC(CC(C4)C2)C3)c1 ?
Result string: > 10 µM

Query string: How about O=C1OC(c2ccccc2)=N/C1=C/C=C/c1ccco1 ?
Result string: > 100 µM

###

Field: GI50. Provide a value for each of the compounds that follow.
tested on: LOX IMVI melanoma; assay: NCI tumour cell line growth inhibition, 48 h

Query string: Form field: reported GI50 of COc1ncnc(C2CC2)c1-c1ncc2cnn(Cc3ccc(-c4nc(C(F)(F)F)cn4C(C)C)cc3)c2n1
Result string: 14.8 µM

Query string: How about CC(SC(C)C(=O)N/N=C/c1cccc(Cl)c1)C(=O)N/N=C\c1cccc(Cl)c1 (stereo not drawn) ?
Result string: 3.03 µM

Query string: How about O=S(=O)(Nc1cc(F)cc(Cl)c1)c1ccc(-c2cnc(C3CC3)o2)cc1 ?
Result string: 2.5 µM

###

test system: UACC-62 melanoma; test: NCI tumour cell line growth inhibition, 48 h
Field: TGI. Provide a value for each of the compounds that follow.

Query string: For UACC-62 melanoma, provide TGI of S=C(c1c[nH]c2ccccc12)N1CCOCC1 please.
Result string: > 100 µM

Query string: How about CCOC(=O)Oc1c(OC)cc(C(=O)NC2CCc3cc(OC)c(OC)c(OC)c3-c3ccc(SC)c(=O)cc32)cc1OC (stereo not given) ?
Result string: > 70 µM

Query string: How about C=C(C=O)C1CCC2(C(=O)O)CCC3(C)C(CCC4C5(C)CCC(O)C(C)(C)C5CCC43C)C12 (stereo not given) ?
Result string: 3.57 µM

Query string: How about O=[n+]1c2c(n([O-])c3ccccc31)CCCCCCCCCC2 ?
Result string: > 100 µM

Query string: How about CS(=O)(=O)N/N=C/CN1C(=O)c2ccccc2C1=O ?
Result string: > 100 µM

###

tested on: SNB-75 CNS; experiment: NCI tumour cell line growth inhibition, 48 h
metric-name: TGI

Query string: Form field: reported TGI of COc1ccc(N(C)c2ncnc3occ(C)c23)cc1
Result string: > 52 µM

Query string: How about CC(=O)O.CC(=O)O.CC(=O)O.CC(=O)O.CC(=O)O.CC(=O)O.O.[Ti].[Ti] ?
Result string: > 100 µM

Query string: How about CCSc1n/c(=C\c2ccco2)c2nnnn12 ?
Result string: > 100 µM

Query string: How about CC(=O)n1nc(-c2ccccc2)n(/N=C/c2ccc([N+](=O)[O-])cc2)c1=O ?
Result string: > 100 µM

Query string: How about N#C/C(C(=O)Nc1ccccc1)=C(/N)N1CCOCC1 ?
Result string: > 100 µM

Query string: How about CC[N+](CC)(CCNCC(N)=O)CC(N)=O ?
Result string: > 10 µM

Query string: How about O=C1NC(=Nc2ccccc2)S/C1=C\c1ccc2ncccc2c1 ?
Result string: > 25 µM

Query string: How about CC(C)(C)OC(=O)NCC(=O)OCc1ccccc1 ?
Result string: > 100 µM

Query string: How about CCOP(=O)(Cc1ccc(CP(=O)(OCC)OCC)n1C)OCC ?
Result string: > 100 µM

Query string: How about CC1=CC(/C=C(\C)CCCc2ccoc2)C2(OC(=O)C(C)=C2O)[C@H]2C1CC[C@@H]2C (stereo not given in full) ?
Result string: > 100 µM

###

test system: DU-145 prostate; assay: NCI tumour cell line growth inhibition, 48 h
Field: TGI. Provide a value for each of the compounds that follow.

Query string: Form field: reported TGI of O=C1OC[C@@H]2Cc3cc4c(cc3[C@H](c3ccc5c(c3)OCO5)[C@@H]12)OCO4
Result string: > 25 µM

Query string: How about Cc1ccc(C(SCC(N)C(=O)O)(c2ccccc2)c2ccc(C)cc2)cc1 (configuration not stated) ?
Result string: 2.66 µM

Query string: How about COc1cc(-c2cc(=O)c3c(OC)c(OC)c(OC)c(OC)c3o2)c(OC)c(OC)c1OC ?
Result string: > 100 µM

Query string: How about COCCOCc1nc(C#N)c(N)o1 ?
Result string: > 100 µM

Query string: How about CNCCCn1cc(C2=C(c3cn(C)c4ccccc34)C(=O)NC2=O)c2ccccc21 ?
Result string: 16.1 µM

Query string: How about S=C(c1c[nH]c2ccccc12)N1CCOCC1 ?
Result string: > 100 µM

Query string: How about CCCCCCCCCC/C=C/CC(=O)SCCNC(=O)CCNC(=O)[C@@H](O)C(C)(C)COP(=O)(O)OP(=O)(O)OCC1OC(n2cnc3c(N)ncnc32)C(O)C1OP(=O)(O)O (some centres not stated) ?
Result string: > 10 µM

Query string: How about CC(C)(C)c1cc(C(P(=O)(c2ccccc2)c2ccccc2)P(=O)(c2ccccc2)c2ccccc2)cc(C(C)(C)C)c1O ?
Result string: > 10 µM

Query string: How about CNn1c(-c2ccccc2)n[nH]c1=O ?
Result string: > 100 µM

Query string: How about O=[N+]([O-])c1cc2oc(COc3ccccc3)nc2cc1Cl ?
Result string: > 100 µM

Query string: How about COc1ccc2nc3ccc(OC)cc3c(S(=O)CCCl)c2c1 (configuration not stated) ?
Result string: 4.66 µM

Query string: How about Cc1nc2ccccc2c(=O)n1NC(=O)c1ccc(CS)cc1 ?
Result string: 88.2 µM
